Test system: Danio rerio larvae (5 dpf)
Assay Overview: difference in activity during first hour vs DMSO (percentage points); higher = more activity than DMSO
Recorded Conditions: 10 µM; exposure time 6 h
Counter-ions that a name gives are not always drawn.
Readout Kind: difference in activity during first hour
Lab note: jot the number down without any unit.

Recorded difference in activity during first hour for CC(N)Cc1ccc(O)cc1 (stereo not given) [4-hydroxy Amphetamine (hydrochloride)] , please?
5.37

Recorded difference in activity during first hour for O=C(O[C@H]1C[C@H]2CC[C@@H](C1)[N+]21CCCC1)C(O)(c1ccccc1)c1ccccc1 [Trospium (chloride)] , please?
1.73

Recorded difference in activity during first hour for C=CCN1C[C@H](C(=O)N(CCCN(C)C)C(=O)NCC)C[C@@H]2c3cccc4[nH]cc(c34)C[C@H]21 , please?
-4.41

Recorded difference in activity during first hour for C[N+]1(C)CCCC(OC(=O)C(O)(c2ccccc2)c2ccccc2)C1 (stereo not given) [Mepenzolate (bromide)] , please?
2.16

Recorded difference in activity during first hour for C=C1C[C@@H]2[C@H](CC[C@]3(C)C(=O)CC[C@@H]23)[C@@]2(C)C=CC(=O)C=C12 , please?
-8.29

Recorded difference in activity during first hour for NCC1(CC(=O)O)CCCCC1 , please?
13.9

Recorded difference in activity during first hour for CCOC(=O)c1cncn1[C@H](C)c1ccccc1 [Etomidate] , please?
-22.2

Recorded difference in activity during first hour for CC(=O)O[C@H]1C[C@@H]2CC[C@@H]3[C@H](CC[C@@]4(C)[C@H]3C[C@H]([N+]3(C)CCCCC3)[C@@H]4OC(C)=O)[C@@]2(C)C[C@@H]1[N+]1(C)CCCCC1 [Pancuronium (bromide hydrate)] , please?
-3.48

Recorded difference in activity during first hour for C#CCN(C)[C@H](C)Cc1ccccc1 [R-(-)-Deprenyl (hydrochloride)] , please?
-5.84

Recorded difference in activity during first hour for CN1[C@@H]2C[C@@H](OC(=O)[C@H](CO)c3ccccc3)C[C@H]1[C@@H]1O[C@@H]12 [Scopolamine (hydrobromide)] , please?
-2.69

Recorded difference in activity during first hour for O=P1(NCCCl)OCCCN1CCCl (stereo not given) [Ifosfamide] , please?
-5.39

Recorded difference in activity during first hour for CC[C@@H](C(N)=O)N1CCCC1=O , please?
2.97

Recorded difference in activity during first hour for C[C@]12CC[C@H](O)CC1=CC[C@@H]1[C@@H]2CC[C@]2(C)C(=O)CC[C@@H]12 [Dehydroepiandrosterone] , please?
-15.8

Recorded difference in activity during first hour for CN(C)C(=O)Oc1cccc([N+](C)(C)C)c1 [Neostigmine (methyl sulfate)] , please?
11.2

Recorded difference in activity during first hour for O=C1CC[C@@]2(O)[C@H]3Cc4ccc(O)c5c4[C@@]2(CCN3CC2CC2)[C@H]1O5 [Naltrexone (hydrochloride)] , please?
13.3

Recorded difference in activity during first hour for NCC(CC(=O)O)c1ccc(Cl)cc1 (racemic) [(±)-Baclofen] , please?
13.9

Recorded difference in activity during first hour for COc1cc2c(c(OC)c1OC)-c1ccc(OC)c(=O)cc1[C@@H](NC(C)=O)CC2 , please?
1.93

Recorded difference in activity during first hour for CCN(C)C(=O)Oc1cccc([C@H](C)N(C)C)c1 [Rivastigmine (tartrate)] , please?
-2.5

Recorded difference in activity during first hour for Nc1ccncc1 , please?
9.5

Recorded difference in activity during first hour for N[C@@H](Cc1ccc(N(CCCl)CCCl)cc1)C(=O)O , please?
-4.46

Recorded difference in activity during first hour for CC1=C[C@]23C(=O)[C@@H](C=C(CO)[C@@H](O)[C@]2(O)[C@H]1O)[C@H]1[C@@H](C[C@H]3C)C1(C)C , please?
-2.63

Recorded difference in activity during first hour for CC(C)C[C@H]1C(=O)N2CCC[C@H]2[C@]2(O)O[C@](NC(=O)[C@@H]3C=C4c5cccc6[nH]c(Br)c(c56)C[C@H]4N(C)C3)(C(C)C)C(=O)N12 [Bromocriptine (mesylate)] , please?
30.9

Recorded difference in activity during first hour for Cn1c(CCCC(=O)O)nc2cc(N(CCCl)CCCl)ccc21 [Bendamustine (hydrochloride)] , please?
2

Recorded difference in activity during first hour for CN1[C@@H]2CC[C@H]1C[C@@H](OC(=O)C(CO)c1ccccc1)C2 (stereo not given in full) , please?
-10.3

Recorded difference in activity during first hour for CC(C)N(CCC(C(N)=O)(c1ccccc1)c1ccccn1)C(C)C (stereo not given) [Disopyramide] , please?
13.6

###

System: Danio rerio larvae (5 dpf)
Assay Overview: difference in combined optomotor response to red, green and blue moving lines vs DMSO (percentage points); higher = stronger optomotor response than DMSO
Recorded Conditions: 10 µM; exposure time 6 h
Where a name gives a salt, the structure may show the parent alone.
Output label 1 for difference not less than -0.6; output label 0 otherwise.

Check this compound for difference at or above -0.6: CC(N)Cc1ccc(O)cc1 (stereo not drawn) [4-hydroxy Amphetamine (hydrochloride)]
label 0

Check this compound for difference at or above -0.6: C[C@H](N)[C@H](O)c1ccc(O)c(O)c1
label 1

Check this compound for difference at or above -0.6: CC1=C[C@]23C(=O)[C@@H](C=C(CO)[C@@H](O)[C@]2(O)[C@H]1O)[C@H]1[C@@H](C[C@H]3C)C1(C)C
label 0

Check this compound for difference at or above -0.6: O=P1(NCCCl)OCCCN1CCCl (stereo not drawn) [Ifosfamide]
label 1

Check this compound for difference at or above -0.6: C[N+]1(C)[C@@H]2C[C@@H](OC(=O)[C@H](CO)c3ccccc3)C[C@H]1[C@@H]1O[C@@H]12 [Methylscopolamine (bromide)]
label 1

Check this compound for difference at or above -0.6: N[C@@H](Cc1ccc(N(CCCl)CCCl)cc1)C(=O)O
label 1

Check this compound for difference at or above -0.6: NCC1(CC(=O)O)CCCCC1
label 1

Check this compound for difference at or above -0.6: O=[N+]([O-])O[C@H]1CO[C@H]2[C@@H]1OC[C@H]2O[N+](=O)[O-] [Isosorbide Dinitrate]
label 1

Check this compound for difference at or above -0.6: NCC(CC(=O)O)c1ccc(Cl)cc1 (racemic) [(±)-Baclofen]
label 1

Check this compound for difference at or above -0.6: CN1[C@@H]2C[C@@H](OC(=O)[C@H](CO)c3ccccc3)C[C@H]1[C@@H]1O[C@@H]12 [Scopolamine (hydrobromide)]
label 1

Check this compound for difference at or above -0.6: C=C1C[C@@H]2[C@H](CC[C@]3(C)C(=O)CC[C@@H]23)[C@@]2(C)C=CC(=O)C=C12
label 1

Check this compound for difference at or above -0.6: Cc1cccc([C@H](C)c2c[nH]cn2)c1C [Dexmedetomidine (hydrochloride)]
label 0

Check this compound for difference at or above -0.6: N.N.[Cl][Pt][Cl] [Cisplatin]
label 1

Check this compound for difference at or above -0.6: CC(NC(C)(C)C)C(=O)c1cccc(Cl)c1 (stereo not drawn) [Bupropion (hydrochloride)]
label 0

Check this compound for difference at or above -0.6: O=P1(N(CCCl)CCCl)NCCCO1 (stereo not drawn) [Cyclophosphamide (hydrate)]
label 1

Check this compound for difference at or above -0.6: C=CCN1C[C@H](C(=O)N(CCCN(C)C)C(=O)NCC)C[C@@H]2c3cccc4[nH]cc(c34)C[C@H]21
label 0

Check this compound for difference at or above -0.6: O=C(O[C@H]1C[C@H]2CC[C@@H](C1)[N+]21CCCC1)C(O)(c1ccccc1)c1ccccc1 [Trospium (chloride)]
label 0

Check this compound for difference at or above -0.6: COc1cc2c(cc1OC)C1CC(=O)C(CC(C)C)CN1CC2 (stereo not drawn)
label 0

###

System: Danio rerio larvae (5 dpf)
Assay Overview: difference in startle response vs DMSO (percentage points); higher = stronger startle than DMSO
Recorded Conditions: 10 µM; exposure time 6 h
Structures can show the parent of a compound that is named as a salt.
Task for the reader: assign each of the following molecules its reported difference in startle response.
Lab note: jot the number down without any unit.

Recorded difference in startle response for O=[N+]([O-])O[C@H]1CO[C@H]2[C@@H]1OC[C@H]2O[N+](=O)[O-] [Isosorbide Dinitrate] , please?
10.4

Recorded difference in startle response for C#CCN(C)[C@H](C)Cc1ccccc1 [R-(-)-Deprenyl (hydrochloride)] , please?
-0.482

Recorded difference in startle response for CN(C)C(=O)Oc1cccc([N+](C)(C)C)c1 [Neostigmine (methyl sulfate)] , please?
0.754

###

Tested on: Danio rerio larvae (5 dpf)
Assay Overview: difference in excitability vs DMSO (percentage points); higher = more excitable than DMSO
Recorded Conditions: 10 µM; exposure time 6 h
Where a name gives a salt, the structure may show the parent alone.
Task for the reader: assign each of the following molecules its reported difference in excitability.
Lab note: jot the number down without any unit.

Recorded difference in excitability for C=C1C[C@@H]2[C@H](CC[C@]3(C)C(=O)CC[C@@H]23)[C@@]2(C)C=CC(=O)C=C12 [Exemestane] , please?
14.1

Recorded difference in excitability for COc1ccc(C(CN(C)C)C2(O)CCCCC2)cc1 (stereo not given) [Venlafaxine (hydrochloride)] , please?
16.6

Recorded difference in excitability for N[C@@H](Cc1ccc(N(CCCl)CCCl)cc1)C(=O)O [Melphalan] , please?
10.9

Recorded difference in excitability for NCC1(CC(=O)O)CCCCC1 [Gabapentin] , please?
-1.43

Recorded difference in excitability for N[C@@H]1C[C@H]1c1ccccc1 [Tranylcypromine (hydrochloride)] , please?
-4.31
